Tested on: UACC-62 melanoma
Test: NCI-60 one-dose screen, 48 h
Details: 10 µM unless noted
Procedure: Growth inhibition of the UACC-62 human tumor cell line is measured as a screen for anti-cancer activity. Cells are grown in 96 well plates and exposed to the test compound for 48 hours. Compounds are tested at a single concentration, which is 10^-5 M for most compounds. The reported endpoint is percent growth (GI% or GIPRCNT), where numbers from 0 - 100% represent growth inhibition, and numbers from -100% - 0 represent cell death. For example, a value of 40 represents 60% growth inhibition. […]
This is part of a sample that, as a whole, favours compounds with a hit. Of some 83,000 tested, about 20% had one in any assay. Calls of active or inactive are those of the source. Rule for the calls: active = growth percent below 10; inactive = the rest.
Labels: active, inactive

INSERT INTO assay_data (compound, answer_label) VALUES
  ('CCNC(=O)C#Cc1ccc2c(C(=Nc3ccc(CN(C)C)cc3)c3ccccc3)c(O)[nH]c2c1', 'active'),
  ('O=C(c1ccc(/C=C/c2n[nH]c3ccccc23)cc1)N1CCNCC1', 'inactive'),
  ('CO[C@H](C(=O)N[C@@H](CCCCNC(=O)OCc1ccccc1)C(=O)OC(C)(C)C)[C@@H]1Cc2cc3cc(OC4CC(OC5CC(O)C(O)C(C)O5)C(O)C(C)O4)c(C)c(O)c3c(O)c2C(=O)[C@H]1OC1CC(OC2CC(OC3CC(C)(O)C(O)C(C)O3)C(O)C(C)O2)C(O)C(C)O1 (some centres undefined)', 'active'),
  ('CCc1nc2ccc(Cc3ccc(C(=O)NO)cc3)cc2c(=O)n1CCc1ccccc1', 'active'),
  ('CCN(CC)Cc1cc(Nc2cc(C(F)(F)F)c(C#N)c3nc4ccccc4n23)ccc1O', 'active'),
  ('COc1cc(NCCN(CC(C)C)CC(C)C)c2ncc(C)cc2c1', 'inactive'),
  ('O=c1sn(-c2cccc3ccccc23)c(=O)n1Cc1ccccc1', 'inactive'),
  ('c1ccc2c(c1)CCN(NCCN1CCCC1)C2', 'inactive'),
  ('CC1CCC(n2cnc3c(Cl)ncnc32)O1 (centres undefined)', 'inactive');

====

Tested on: CAKI-1 renal
Test: NCI-60 one-dose screen, 48 h (100 = growth as untreated, 0 = no growth, -100 = all killed)
Conditions: 10 µM unless noted
The panel holds about 83,000 compounds, 20% with a hit somewhere; the sample as a whole holds those more often.
QUANTITY MEASURED: growth (%)

INSERT INTO measurements (compound, readout_number) VALUES
  ('CCOC(=O)C1=C(C)N=C2Sc3cc(OC(F)(F)F)ccc3N2[C@H]1c1ccccn1', 27.9),
  ('CC1(O)CCC2CC3OC3(C)CCC3OC3(C)C(O)CC1C2(C)C (centres undefined)', 99.2),
  ('N#Cc1c(-c2ccc(Cl)cc2)csc1NC(=O)Nc1cccc(C(F)(F)F)c1', 27.8),
  ('OCCNC(=S)Nc1ccc(-c2nc(N3C[C@H]4CC[C@@H](C3)O4)c3cccn3n2)cc1', 6.32),
  ('COc1ccc(OC)c(NC2=C(SCCc3ccccc3)C(=O)c3ccccc3C2=O)c1', 63.7),
  ('C[C@@H](Nc1cc(F)cc(F)c1)c1cc(C(=O)N(C)C)cc2c(=O)cc(N3CCOCC3)oc12', 33.6),
  ('C=C1[C@@H](O)C[C@H]2C(C)(C)C[C@H](Cl)C[C@]2(C)[C@H]1C[C@H](O)[C@H]1CC(=O)NC1=O', 1.87),
  ('CCN(CC)CCNC(=O)c1c(C)[nH]c(/C=C2\C(=O)Nc3ccc(F)cc32)c1C', 17.5),
  ('CCCCn1c(C)nc2ccc(Nc3nc(N4CCN(C)CC4)nc4nc[nH]c34)cc21', 99.8);

====

Tested on: SF-539 CNS
Test: NCI-60 one-dose screen, 48 h (100 = growth as untreated, 0 = no growth, -100 = all killed)
Conditions: 10 µM unless noted
The panel holds about 83,000 compounds, 20% with a hit somewhere; the sample as a whole holds those more often.
hey, just use 1 if measured growth is less than 50%, otherwise -1

INSERT INTO measurements (mol_smiles, answer_label) VALUES
  ('CC(C)OP(=O)(CCC(=O)c1c[nH]c2ccccc12)OC(C)C', -1),
  ('COC(=O)[C@@H](C)CNS(=O)(=O)N(c1cc(C(F)(F)F)cc(C(F)(F)F)c1)C1CCN(Cc2ccc(F)cc2)CC1', -1),
  ('O=C1CCC(=O)CC1', -1),
  ('COc1cc2c(Oc3ccc(NC(=O)C4(C(=O)Nc5ccc(F)cc5)CC4)cc3F)ccnc2cc1OCCCN1CCOCC1', 1);

====

System: OVCAR-4 ovarian
Assay: NCI-60 one-dose screen, 48 h (100 = growth as untreated, 0 = no growth, -100 = all killed)
Conditions: 10 µM unless noted
The panel holds about 83,000 compounds, 20% with a hit somewhere; the sample as a whole holds those more often.
QUANTITY MEASURED: growth (%)

INSERT INTO results (mol_smiles, readout_number) VALUES
  ('CCc1nc2cc(/C=C/C(=O)NO)ccc2c(=O)n1CCc1ccc(F)cc1', 25.4),
  ('C=C1[C@@H](O)C[C@H]2C(C)(C)C[C@H](Cl)C[C@]2(C)[C@H]1C[C@H](O)[C@H]1CC(=O)NC1=O', -36.3),
  ('COc1cc2c(Oc3ccc4[nH]c(C)cc4c3F)ncnc2cc1OCCCN1CCCC1', 74),
  ('Fc1ccc(NCc2cn(-c3ccccc3)nc2-c2ccc(OCc3ccccc3)cc2)cc1Cl', 97.5),
  ('CCN(CC)C(=O)C[N+](C)(C)CCOC(c1ccccc1)c1ccccc1', 89.5);

====

System: SNB-19 CNS
Test: NCI-60 one-dose screen, 48 h (100 = growth as untreated, 0 = no growth, -100 = all killed)
Details: 10 µM unless noted
About 83,000 compounds went through this panel and 20% of them were active in at least one assay; those are over-represented in the sample as a whole.
So basically, the class depends on measured growth, and the ranges are lo: < 40%; mid: ≥ 40% and < 60%; hi: ≥ 60%

INSERT INTO measurements (compound, tgt, answer_label) VALUES
  ('COc1ccc2c(CCC(c3ccccc3)c3ccccc3)c3[n+](cc2c1OC)CCc1cc2c(cc1-3)OCO2', 'SNB-19 CNS', 'lo'),
  ('Cc1c(CN2CCN(C(=O)[C@H](C)O)CC2)sc2c(N3CCOCC3)nc(-c3cnc(N)nc3)nc12', 'SNB-19 CNS', 'lo'),
  ('CCCCN1CCCC[C@@H]1C(=O)N[C@H](C(=O)N(C)[C@H](CCc1nc(C(=O)N[C@@H](Cc2ccccc2)C[C@H](C)C(=O)OC)cs1)C(C)C)C(C)C', 'SNB-19 CNS', 'mid'),
  ('COc1cc2cc(NCc3ccc(F)cc3)nc(C)c2cc1OC', 'SNB-19 CNS', 'mid'),
  ('COc1cc(NC2CCC(=O)N2c2ccc(Cl)cc2Cl)cc(OC)c1OC (centres undefined)', 'SNB-19 CNS', 'hi'),
  ('COc1ccc(C(=O)c2cc(OC)c(OC)c(OC)c2)cc1/C=C/C(=O)c1ccc(F)cc1', 'SNB-19 CNS', 'hi'),
  ('NC(=O)N1N=C(c2ccc(Cl)cc2)CC1c1cn(-c2ccccc2)nc1-c1ccc(Cl)cc1 (centres undefined)', 'SNB-19 CNS', 'mid'),
  ('CC(=O)C1CC(C)CCC1C(C)C (centres undefined)', 'SNB-19 CNS', 'hi'),
  ('Cc1c(NC(=O)OC[C@@H]2COCCN2)cn2ncnc(Nc3ccc4c(cnn4Cc4cccc(F)c4)c3)c12', 'SNB-19 CNS', 'lo'),
  ('COc1ccc(Cl)c(Nc2nc3ccccc3nc2NS(=O)(=O)c2cccc(NC(=O)C(C)(C)N)c2)c1', 'SNB-19 CNS', 'hi'),
  ('CC#CC(=O)N1CCC[C@H]1c1nc(-c2ccc(C(=O)Nc3ccccn3)cc2)c2c(N)nccn12', 'SNB-19 CNS', 'hi'),
  ('Cc1cc2c(-c3nc4ccccn4c3N)c(O)c(O)cc2c(O)c1-c1c(C)cc2c(-c3nc4ccccn4c3N)c(O)c(O)cc2c1O', 'SNB-19 CNS', 'lo'),
  ('CC(C)Nc1cc(-c2c[nH]c(C(=O)N[C@H](CO)c3cccc(Cl)c3)c2)c(Cl)cn1', 'SNB-19 CNS', 'mid'),
  ('C[C@@]1(C(=O)Nc2ccc(F)nc2)CCCN1c1nc(Nc2cc(C3CC3)[nH]n2)c2cccn2n1', 'SNB-19 CNS', 'mid'),
  ('O=C(c1ccc(/C=C/c2n[nH]c3ccccc23)cc1)N1CCNCC1', 'SNB-19 CNS', 'hi'),
  ('COc1cc2cc(NCc3ccc(Cl)cc3)nc(C)c2cc1OC', 'SNB-19 CNS', 'mid'),
  ('Cn1cc(-c2ccc(F)c(C(F)(F)F)c2)nc1C1CCN(c2ncnc3[nH]ncc23)CC1', 'SNB-19 CNS', 'mid');

The measurements presented in this section are drawn from PubChem BioAssay (NCI).
